The reported measurements were obtained from paper PMC9482650.

Biological target: MAGI2_2, Q86UL8
Sequence (Q86UL8 410-522): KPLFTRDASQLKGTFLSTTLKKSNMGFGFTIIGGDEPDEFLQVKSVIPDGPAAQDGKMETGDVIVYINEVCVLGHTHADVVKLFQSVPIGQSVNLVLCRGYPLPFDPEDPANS
Test: holdup assay
Design: key: below the threshold = too weak to quantify, mostly under pKd 3.1 to 4
Conditions: plain residues with an end cap or a label only (N-terminal biotin on a linker: ttds)
result type: pKd

- PVRVCEETSL [OTULIN, Q96BN8]: 4.09
- EMDRRPATVV [PLCB4, Q15147]: 4.31
- RPLPRKVSQL [DOCK4, Q8N1I0]: 4.6
- KKYVDAETSL [SLC4A7, Q9Y6M7]: 3.77
- SKPTRRETEV [HPV35-E6, P27228]: 4.93
- RLPKIKETTV [FRMPD4, Q14CM0]: 4.73
- RLQRRRETQV [HPV18-E6, P06463]: 5.16
